Biological target: T1, mouse common cytokine receptor γ-chain (IL-2Rγ) (mouse, UniProt P34902 23-263, limits assumed)
T1 construct: Recombinant mouse IL-2Rγ protein; also called mo IL-2R; mouse IL-2R gamma
T1 sequence (looked up): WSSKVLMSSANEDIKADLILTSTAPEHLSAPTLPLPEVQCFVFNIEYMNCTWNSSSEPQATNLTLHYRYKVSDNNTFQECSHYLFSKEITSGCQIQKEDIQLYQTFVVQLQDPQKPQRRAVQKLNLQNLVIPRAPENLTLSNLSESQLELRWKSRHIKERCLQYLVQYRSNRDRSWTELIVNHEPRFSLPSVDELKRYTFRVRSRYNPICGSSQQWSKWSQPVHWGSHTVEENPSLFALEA
Experiment: P.E. off-rate SPR
# koff listing for each entry below

{"columns": ["binder", "koff"],
 "data": [
  ["FJ1427_P035MP07B05 (VHH, tested as periplasmic extract; also called Clone nr; 610) VHH: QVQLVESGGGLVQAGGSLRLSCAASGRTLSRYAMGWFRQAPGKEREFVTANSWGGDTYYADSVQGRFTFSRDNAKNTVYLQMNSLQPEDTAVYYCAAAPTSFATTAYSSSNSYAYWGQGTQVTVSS", "0.11 s⁻¹"],
  ["FJ1427_P035MP07H04 (VHH, tested as periplasmic extract; also called Clone nr) VHH: QVQLVESGGGLVQAGGSLRLSCAASGRTLSRYAMGWFRQAPGKEREFVAAMSWGGDTFYADSVEGRFTFSRDNAEIAVYLQMNSLQPEDTAVYYCAAAPTSFATTAYSSSNSYAYWGQGTQVTVSH", "0.0823 s⁻¹"],
  ["FJ1427_P035MP07F06 (VHH, tested as periplasmic extract; also called Clone nr) VHH: QVQLVESGGGLVQAGGSLRLSCAASGRALSRLAMGWFRQAPGKEREFVVASSWGDDTFYADSVKGRFTFSRDNAKNTVYLQMNSLQPGDTAVYYCAAAPTSFATTAYSSSNSYAYWGQGTQVTVSS", "0.0117 s⁻¹"],
  ["FJ1427_P035MP07F10 (VHH, tested as periplasmic extract; also called Clone nr; 654) VHH: QVQLQESGGGLVQAGGSLRLSCAASGRTLSRYAMGWFRQAPGKEREFVACDSWGGDTFYADSVEGRFTFSRDNAKNATYLQMNSLQPEDTAVYYCAGAPTSFATTAYSSSNSYTVWGQGTQVTVSL", "0.0121 s⁻¹"]
]}

The values you see were collected from patent US20240409645A1.
